In this section, each of the compounds is paired with its reported melting point.

Previously resolved entries follow.
Cc1cc(-c2cc(=O)n3cc(N4CCNCC4)ccc3n2)cc2cnn(C)c12	160 to 163 °C
Cc1cn2nc(-c3cc(=O)n4cc(N5CCN(CCO)[C@H](C)C5)ccc4n3)cc2c(C)n1	238 to 240 °C
COc1ccc(-c2cc(=O)n3cc(N4CCCNCC4)ccc3n2)cc1	149 to 152 °C
C[C@H]1CN(c2ccc3nc(-c4ccccc4)cc(=O)n3c2)CCN1	170 to 173 °C
Cc1cn2cc(-c3cc(=O)n4cc(N5CCN(C6CC6)[C@@H](C)C5)ccc4n3)cc(F)c2n1	242 to 246 °C

For Cc1nc2ccc(-c3cc(=O)n4cc(N5CCNCC5)ccc4n3)cc2o1 , what is its reported melting point?
219 to 222 °C

Sample Cc1cn2nc(-c3cc(=O)n4cc(N5C[C@@H](C)N[C@@H](C)C5)ccc4n3)cc2cn1 — what was its melting point?
258 to 260 °C

Endpoint output: melting point of CCc1nc(C)cn2nc(-c3cc(=O)n4cc(N5CCN(C6CC6)[C@H](C)C5)ccc4n3)cc12 . Value?
244 to 247 °C

// query melting point value for entry C[C@H]1CN(c2ccc3nc(-c4cc(F)cc(F)c4)cc(=O)n3c2)CCN1
189 to 194 °C

###

# EC (1.5-fold increase) values compiled below
system: SMN2 minigene mRNA (SMN2-A minigene) in HEK293H cells; experiment: SMN2 minigene mRNA splicing RT-qPCR assay in cultured cells; assay type: cell-based, human; details: Homo sapiens, HEK293-H; concentration increasing full length SMN2 mRNA 1.5-fold relative to vehicle-treated cells; HEK293H cells with SMN2-A minigene, 24 hours, 7-point concentration data; read-out: EC1.5x for production of full length SMN2 mRNA

Some solved cases for reference:
COc1nc(C)cn2nc(-c3cc(=O)n4cc(N5CCN(C)CC5)ccc4n3)cc12 [Cpd 625]	1 to 3 µM
COc1ccc(-c2cc(=O)n3cc(N4CCC(N(C)C)CC4)cc(C)c3n2)cc1OC [Compound 261]	< 0.1 µM
CCc1nc(C)cn2nc(-c3cc(=O)n4cc(C5CCN(CCO)CC5)ccc4n3)cc12 [Compound 659]	< 0.1 µM
COc1ccc(-c2cc(=O)n3cc(C4=CCNCC4)cnc3n2)cc1OC [Cpd 353]	0.1 to 0.3 µM
COc1ccc(-c2cc(=O)n3cc(N4CCCN(C)CC4)ccc3n2)cc1F [Compound 166]	0.3 to 1 µM

# returns recorded EC (1.5-fold increase) (system: SMN2 minigene mRNA (SMN2-A minigene) in HEK293H cells) for COc1ccc(-c2ccc3nc(N4CCNCC4)cc(=O)n3c2)cc1F [Cpd 220]
0.3 to 1 µM

# get_value(readout= EC (1.5-fold increase), system= SMN2 minigene mRNA (SMN2-A minigene) in HEK293H cells) for CCc1nc(C)cn2nc(-c3cc(=O)n4cc(C5CCN(C(C)C)CC5)ccc4n3)cc12 [Compound 679]
< 0.1 µM

Record lookup: for SMN2 minigene mRNA (SMN2-A minigene) in HEK293H cells, what EC (1.5-fold increase) belongs to COc1ccc(-c2cc(=O)n3cc(N4CCC(NC5CC5)CC4)cc(C)c3n2)cc1OC [Compound 330] ?
0.1 to 0.3 µM
